Below, each entry is listed alongside its reported MIC.
Test system: Trichophyton mentagrophytes
Experiment: Antifungal activity against Trichophyton mentagrophytes after 48 hrs by broth microdilution technique
Format: functional
Answer with a number only, understood to be in µg/mL.

Cc1ncc([N+](=O)[O-])n1CCOC(=O)CCn1ccnc1[N+](=O)[O-] 50
Cc1ncc([N+](=O)[O-])n1CCSC(=S)N1CCOCC1 50
Cc1ncc([N+](=O)[O-])n1CCOC(=O)CCn1cncn1 50
Cc1ncc([N+](=O)[O-])n1CCSC(=S)N1CCN(c2ncccn2)CC1 50
Cc1ncc([N+](=O)[O-])n1CCSC(=S)N(C)C.O=C(O)C(O)C(O)C(=O)O 50

Field: next compound
*Q* Indicate the recorded MIC value for this compound: COc1ccccc1N1CCN(C(=S)SCCn2c([N+](=O)[O-])cnc2C)CC1.O=C(O)C(O)C(O)C(=O)O
*A* 25
